Literature-derived IC50 for Human CD38 (Homo sapiens (Human)) follows.

[[record]]
sample_smiles = "Cn1c(=O)cc(N[C@H]2CC[C@H](C(C)(C)O)CC2)c2cc(-n3ccnc3)ccc21"
value_reported = "0.01 to 0.1 µM"

[[record]]
sample_smiles = "Cn1c(=O)cc(N[C@H]2CC[C@H](NCC(C)(F)F)CC2)c2nc(-n3ccnc3)ncc21"
value_reported = "< 0.01 µM"

[[record]]
sample_smiles = "COCCO[C@H]1CC[C@H](NC(=O)c2nc(-n3ccnc3)nc3c(C)c[nH]c23)CC1"
value_reported = "0.01 to 0.1 µM"


# query: IC50 of entry C[C@]1(O)CC[C@H](NC(=O)c2nc(-n3ccnc3)nc3cc[nH]c23)CC1
0.01 to 0.1 µM

# get_value(readout='IC50', item= C[C@]1(NCC(F)(F)F)CC[C@@H](NC(=O)c2nc(-n3ccnc3)cc3cn[nH]c23)CC1 )
< 0.01 µM

Which IC50 is listed for CC(=O)NC[C@H]1CC[C@H](NC(=O)c2nc(-n3ccnc3)nc3cn[nH]c23)CC1 ?
0.01 to 0.1 µM

Can you look up the measured IC50 of O=C(N[C@H]1CC[C@H](O)CC1)c1cccc(-n2ccnc2)n1 for me?
0.054 µM

Could you share which IC50 value was measured for Cn1c(=O)cc(NC2CCN(S(C)(=O)=O)CC2)c2cc(-n3ccnc3)ccc21 ?
0.01 to 0.1 µM
